# Tested on: SNB-75 CNS
# Assay remarks: NCI tumour cell line growth inhibition, 48 h
Endpoint name: TGI

Record excerpt, results attached:
CC(=O)OC1CC2(C)C(OC(C)=O)CC1C2(C)C (stereo unspecified)	> 100 µM
CC1CC(c2ccc([N+](=O)[O-])cc2)=Nc2ccccc2S1 (stereo unspecified)	> 100 µM
COc1ccc(SCc2cc(OC)c(OC)c(OC)c2)cc1OC	> 70.5 µM
Clc1ccccc1/C=C\C1(c2ccccc2)OCCO1	34.3 µM
O=C(Nc1cccc(-n2cc(-c3ccncc3)c(-c3ccc(Cl)c(O)c3)n2)c1)Nc1ccc(Cl)c(C(F)(F)F)c1	5.05 µM

Q. Return TGI for the following compound: O=C(O)CNC(=O)C(CS)Cc1ccccc1 (stereo unspecified)
A. > 25 µM
